Please respond with reported Activity at Protein Kinase Assays (% of control), MAPK2(m) for every item in the list.
Biological target: MAPK2(m) (Mus musculus)
Sequence (P63085 whole entry): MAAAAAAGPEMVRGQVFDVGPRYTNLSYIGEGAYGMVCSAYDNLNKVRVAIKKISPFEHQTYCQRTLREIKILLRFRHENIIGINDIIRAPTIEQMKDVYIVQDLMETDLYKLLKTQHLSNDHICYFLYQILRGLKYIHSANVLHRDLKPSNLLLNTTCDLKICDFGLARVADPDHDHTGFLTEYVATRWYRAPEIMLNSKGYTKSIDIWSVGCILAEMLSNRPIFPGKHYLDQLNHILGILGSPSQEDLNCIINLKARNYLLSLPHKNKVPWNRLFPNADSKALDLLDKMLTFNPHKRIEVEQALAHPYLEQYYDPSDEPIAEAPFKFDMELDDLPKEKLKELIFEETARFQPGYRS
Test: Protein kinase selectivity panel
Assay type: biochemical
Settings: 1.0 μM compound, 10 μM ATP

Name the reported Activity at Protein Kinase Assays (% of control), MAPK2(m) value associated with the compound `O=C1NC(=O)C2=C1c1cn(c3ccccc13)CCCc1cc(nc(N3CCCC3)c1)CCCn1cc2c2ccccc21`
103 % of control

Field request: Activity at Protein Kinase Assays (% of control), MAPK2(m) | item: `CN(C)c1cc2cc(n1)CCCn1cc(c3ccccc31)C1=C(C(=O)NC1=O)c1cn(c3ccccc13)CCC2`
95 % of control

So what does the record say about Activity at Protein Kinase Assays (% of control), MAPK2(m) for `O=C1NC(=O)C2=C1c1cn(c3ccccc13)CCCc1ccc(c(N3CCCC3)n1)CCCn1cc2c2ccccc21` ?
99 % of control

Which Activity at Protein Kinase Assays (% of control), MAPK2(m) value is on record for `CN(C)c1nc2ccc1CCCCn1cc(c3ccccc31)C1=C(C(=O)NC1=O)c1cn(c3ccccc13)CCC2` ?
95 % of control

====

Answer each item with its documented Activity at Protein Kinase Assays (% of control), PKCδ(h).
Biological target: PKCδ(h) (Homo sapiens, UniProt Q05655)
Sequence (Q05655 whole entry): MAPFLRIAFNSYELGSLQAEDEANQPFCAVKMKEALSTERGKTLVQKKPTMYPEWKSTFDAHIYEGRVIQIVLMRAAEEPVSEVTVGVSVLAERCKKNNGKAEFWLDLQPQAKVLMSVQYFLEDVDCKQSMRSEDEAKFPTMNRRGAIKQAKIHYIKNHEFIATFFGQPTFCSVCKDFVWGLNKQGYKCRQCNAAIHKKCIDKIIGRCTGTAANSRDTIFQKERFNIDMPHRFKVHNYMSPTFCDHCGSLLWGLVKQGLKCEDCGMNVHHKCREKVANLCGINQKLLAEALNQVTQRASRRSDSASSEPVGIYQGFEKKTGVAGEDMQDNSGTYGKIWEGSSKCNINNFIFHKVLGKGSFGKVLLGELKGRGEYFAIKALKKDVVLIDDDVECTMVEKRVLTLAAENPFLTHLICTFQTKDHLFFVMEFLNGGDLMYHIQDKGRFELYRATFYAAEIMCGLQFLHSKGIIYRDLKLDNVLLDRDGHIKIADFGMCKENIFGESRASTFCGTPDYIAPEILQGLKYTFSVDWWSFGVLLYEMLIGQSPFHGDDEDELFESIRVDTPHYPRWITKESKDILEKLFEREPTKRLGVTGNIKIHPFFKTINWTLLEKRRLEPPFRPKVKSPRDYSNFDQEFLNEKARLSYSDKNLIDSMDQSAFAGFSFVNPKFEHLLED
Assay: Protein kinase selectivity panel
Assay type: biochemical
Settings: 1.0 μM compound, 10 μM ATP

Find the recorded Activity at Protein Kinase Assays (% of control), PKCδ(h) belonging to O=C1NC(=O)C2=C1c1cn(c3ccccc13)CCCc1ccc(c(N3CCCC3)n1)CCCn1cc2c2ccccc21 [Cpd 7] and report it.
91 % of control

If you can, please state the reported Activity at Protein Kinase Assays (% of control), PKCδ(h) value of O=C1NC(=O)C2=C1c1cn(c3ccccc13)CCCc1cc(nc(N3CCCC3)c1)CCCn1cc2c2ccccc21 [Cpd 6] .
104 % of control

What Activity at Protein Kinase Assays (% of control), PKCδ(h) value was documented for this molecule, CN(C)c1cc2cc(n1)CCCn1cc(c3ccccc31)C1=C(C(=O)NC1=O)c1cn(c3ccccc13)CCC2 [Cpd 2] ?
100 % of control

Give its Activity at Protein Kinase Assays (% of control), PKCδ(h) value. Item: CN(C)c1nc2ccc1CCCCn1cc(c3ccccc31)C1=C(C(=O)NC1=O)c1cn(c3ccccc13)CCC2 [Cpd 1]
73 % of control

====

Biological target: PKCβII(h) (Homo sapiens, UniProt P05771)
Sequence (P05771 1-673 isoform P05771-2): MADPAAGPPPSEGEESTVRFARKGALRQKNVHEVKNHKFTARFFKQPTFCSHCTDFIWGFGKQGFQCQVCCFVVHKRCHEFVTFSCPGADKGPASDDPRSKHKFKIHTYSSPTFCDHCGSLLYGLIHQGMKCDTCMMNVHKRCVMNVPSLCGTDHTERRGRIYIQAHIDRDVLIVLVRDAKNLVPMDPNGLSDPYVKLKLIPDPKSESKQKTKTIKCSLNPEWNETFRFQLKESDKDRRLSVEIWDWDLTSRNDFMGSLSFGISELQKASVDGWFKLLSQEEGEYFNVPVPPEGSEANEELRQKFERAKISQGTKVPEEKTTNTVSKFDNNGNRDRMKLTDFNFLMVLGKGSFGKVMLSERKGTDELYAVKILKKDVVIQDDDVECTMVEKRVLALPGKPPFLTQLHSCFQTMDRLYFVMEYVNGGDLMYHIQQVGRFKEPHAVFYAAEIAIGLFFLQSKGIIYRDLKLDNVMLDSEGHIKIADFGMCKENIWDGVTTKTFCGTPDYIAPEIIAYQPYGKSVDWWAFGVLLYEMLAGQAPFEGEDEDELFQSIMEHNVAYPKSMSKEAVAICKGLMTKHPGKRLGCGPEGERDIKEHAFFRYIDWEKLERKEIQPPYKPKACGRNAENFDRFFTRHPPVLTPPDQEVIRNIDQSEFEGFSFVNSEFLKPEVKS
Assay: Protein kinase selectivity panel
Format: biochemical
Details: 1.0 μM compound, 10 μM ATP
Please respond with reported Activity at Protein Kinase Assays (% of control), PKCβII(h) for every item in the list.

Fill in: Activity at Protein Kinase Assays (% of control), PKCβII(h) of `O=C1NC(=O)C2=C1c1cn(c3ccccc13)CCCc1ccc(c(N3CCCC3)n1)CCCn1cc2c2ccccc21` is ___
77 % of control

For the compound shown here, `O=C1NC(=O)C2=C1c1cn(c3ccccc13)CCCc1cc(nc(N3CCCC3)c1)CCCn1cc2c2ccccc21` , give the reported Activity at Protein Kinase Assays (% of control), PKCβII(h).
74 % of control

Any idea what Activity at Protein Kinase Assays (% of control), PKCβII(h) was measured for `CN(C)c1cc2cc(n1)CCCn1cc(c3ccccc31)C1=C(C(=O)NC1=O)c1cn(c3ccccc13)CCC2` ?
68 % of control

Name the reported Activity at Protein Kinase Assays (% of control), PKCβII(h) value associated with the compound `CN(C)c1nc2ccc1CCCCn1cc(c3ccccc31)C1=C(C(=O)NC1=O)c1cn(c3ccccc13)CCC2`
64 % of control
